Target: mushroom tyrosinase (EC 1.14.18.1)
Construct: 22 U of mushroom tyrosinase (EC 1.14.18.1)
Assay: Tyrosinase inhibition assay and kinetics (o-diphenolase activity, L-DOPA substrate)
Format: biochemical, Agaricus bisporus (mushroom)
Details: o-diphenolase activity, L-DOPA substrate, 25° C., pH 6.8; read-out: IC50 (μM ± SEM)

{"Smi": "NC(=S)N/N=C/c1ccc2[nH]ncc2c1", "Endpoint Unit": "µM", "IC50": 0.228}

----------
Biological target: mushroom tyrosinase (EC 1.14.18.1)
Construct: 22 U of mushroom tyrosinase (EC 1.14.18.1)
Assay: Tyrosinase inhibition assay and kinetics (o-diphenolase activity, L-DOPA substrate)
Assay type: biochemical, Agaricus bisporus (mushroom)
Settings: o-diphenolase activity, L-DOPA substrate, Dixon plot, 25° C., pH 6.8; read-out: Ki (μM ± SEM)
Description: The assay mixture contained sodium phosphate buffer (50 mM; pH 6.8), 22 U of mushroom tyrosinase (EC 1.14.18.1; Sigma Chemical Co., St. Louis, USA), L-DOPA substrate (1 mM), and Compound 2 dissolved in DMSO. […] The kinetic assays included a range of substrate (0.25-2.0 mM) and Compound 2 concentrations (0.25, 0.5, 1.0, 2.0 μM). […] The reaction was continuously monitored in the spectrophotometer and the enzyme velocity was measured from the linear portion of the curve (7). […]
Observation Type: Ki

{"Molecule": "NC(=S)N/N=C/c1ccc2[nH]ncc2c1 [Compound 2]", "Observed": "0.0843 µM"}
